Origin of the recorded values: PubChem BioAssay

# maps each entry to its composite z-score
experiment: probe aDKK1 binding to arrayed compounds – biochemical, biotinylated probe, 635/667 nm fluorescence, primary screen (AID 1099); conditions: small-molecule microarray, higher = more signal;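 further: score merges 667nm spot fluorescence with signal to noise across triplicate slides; reference of the scale not given here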
recorded metric: composite z-score

* O=C1CS(=O)(=O)C(c2cccc([N+](=O)[O-])c2)N1c1ccccc1 (centres undefined) | 0.913
* C=CCNC(=O)[C@@H]1[C@H]2C(=O)O[C@H](c3ccccc3)[C@H](c3ccccc3)N2[C@H](c2ccccc2OCCO)[C@@]12C(=O)Nc1ccc(C#CCC(C(=O)OC)C(=O)OC)cc12 | -0.319
* CCOC(=O)C[C@H]1[C@H](OC(=O)c2cc3ccccc3oc2=O)[C@@H](NC(=O)c2ccccc2)c2cc(OCCCO)ccc2N1C(=O)c1ccccc1 | -0.198
* C=CCC(OC(C)=O)[C@@H]1[C@@H](N(Cc2ccc(-c3cccc(C(F)(F)F)c3)o2)C(=O)c2ccc(-c3ccccc3)cc2)c2cc(OCCCO)ccc2N1C(=O)Cc1ccc2ccccc2c1 (some centres undefined) | -0.155
* COCCCNC(=O)[C@@]1(Sc2ccc(C)cc2)CC(=O)N(C2Cc3ccccc3C2)[C@@H]1c1ccc(CO)cc1 | 0.106
* Cc1ccc(S[C@]2(C(=O)NCC(F)(F)F)CC(=O)N(Cc3cc(C(F)(F)F)cc(C(F)(F)F)c3)[C@@H]2c2ccc(CO)cc2I)cc1 | -0.647
* CC(C)C(CO)N1C(=O)[C@@H]2[C@H]3C(=O)OCC=C[C@H]3OC23C=CCN(c2ccc(Cl)cc2)C(=O)[C@@H]13 (some centres undefined) | -0.0517
* Cc1ccc(S[C@]2(C(=O)NCc3ccccc3)CC(=O)N(C3CCCCC3)[C@@H]2c2ccc(CO)cc2I)cc1 | -0.0018
* COC(=O)C1=CC(CCCO)=CC(c2ccc(CN3CCCC3)cc2)N(Cc2cccc(OC(F)(F)F)c2)C=C1C(=O)OC (centres undefined) | 0.752

----------
target: Pro-neuregulin-1, membrane-bound isoform (Homo sapiens) (UniProt Q02297); test: small molecules binding neuregulin-1 protein – biochemical, small-molecule microarray, fluorescence 635/667, psychiatric disease protein project, primary screen (AID 1075); details: NRG1 binding, 635 nm fluorescence, higher = more signal;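 further: score combines 667 nm spot fluorescence with signal to noise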
Sequence (Q02297 whole entry, looked up, canonical isoform): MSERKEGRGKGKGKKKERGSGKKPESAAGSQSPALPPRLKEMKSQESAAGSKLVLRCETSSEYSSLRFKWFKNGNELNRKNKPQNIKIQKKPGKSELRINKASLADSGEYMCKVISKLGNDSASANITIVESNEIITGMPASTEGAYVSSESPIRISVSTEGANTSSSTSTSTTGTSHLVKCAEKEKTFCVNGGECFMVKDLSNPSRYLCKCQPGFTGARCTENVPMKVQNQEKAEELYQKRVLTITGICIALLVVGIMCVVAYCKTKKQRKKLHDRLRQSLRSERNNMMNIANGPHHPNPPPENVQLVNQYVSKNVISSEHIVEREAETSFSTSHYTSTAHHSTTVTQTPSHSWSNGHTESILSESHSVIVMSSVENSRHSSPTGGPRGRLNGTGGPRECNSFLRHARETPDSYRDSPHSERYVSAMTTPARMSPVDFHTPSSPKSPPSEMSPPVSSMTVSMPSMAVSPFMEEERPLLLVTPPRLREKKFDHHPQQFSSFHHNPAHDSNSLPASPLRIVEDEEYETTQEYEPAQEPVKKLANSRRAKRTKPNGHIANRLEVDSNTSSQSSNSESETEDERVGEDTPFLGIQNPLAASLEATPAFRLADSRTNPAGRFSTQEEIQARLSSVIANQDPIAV
recorded metric: composite z-score

• CCOc1cc(C(O)C2C=CC3C(=O)NC(=O)C3N2Nc2ccc(Cl)cc2Cl)ccc1O (stereo not given) = -0.226
• O=c1cccc(-c2ccc([N+](=O)[O-])cc2)o1 = -0.283
• [N-]=[N+]=Nc1ccccc1[C@@H]1OC(c2ccc(OCCCO)cc2)=N[C@]1(Cc1ccccc1)C(=O)O = 1.42
• C[C@@H]1NC(=O)[C@@H](Cc2ccccc2)NC(=O)[C@@]23C(=O)N[C@@H](Cc4ccccc4)C2[C@H](C)[C@@]2(C)O[C@H]2C3/C=C/C/C=C\CNC1=O (stereo not given in full) = -0.235
• CCCNC(=O)[C@@]1(Sc2ccc(C)cc2)CC(=O)N(C2Cc3ccccc3C2)[C@@H]1c1ccc(CO)cc1I = 0.917

----------
experiment: probe aWnt5a binding to arrayed compounds – biochemical, biotinylated probe, 635/667 nm fluorescence, primary screen (AID 1113); details: small-molecule microarray, higher = more signal;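 further: score merges 667 nm fluorescence intensity with signal-to-noise per printed feature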
Label FALSE if composite z-score falls below -0.1; label TRUE in every other case.

• COc1ccc(CCNC(=O)[C@@]2(Cc3ccccc3I)c3ccccc3C(=O)N(C3CCCCC3)[C@H]2c2ccc(CO)cc2)cc1 = TRUE
• CCOC(=O)C[C@H]1[C@H](OC(=O)c2ccccc2-c2ccccc2)[C@@H](NC(=O)c2ccc3ccccc3n2)c2cc(OCCCO)ccc2N1C(=O)Cc1ccc(OC)cc1 = FALSE
• C[N+](C)(C)CCCC[C@@H]1NC(=O)[C@@H]2C[C@H](C(=O)NCCCCCCN)[C@H](c3cccc(OCCO)c3)N2C1=O = TRUE
• CCCC#C[Si](O[C@H](CC)c1cn([C@H](C)c2ccccc2)nn1)(C(C)C)C(C)C = FALSE
• C=C[C@@H](OC)[C@H](OC(=O)Nc1ccc(OC)cc1)c1ccc(O)c(F)c1 = FALSE
• CC(C)[Si](C#CCCCC#N)(O[C@H](c1ccccc1)c1cn(Cc2ccccc2)nn1)C(C)C = FALSE
• Cc1ccccc1C(O)C1C=CC2C(=O)NC(=O)C2N1Nc1ccccn1 (configuration not stated) = FALSE
• CCCN1C(=O)[C@]2(Cc3ccccc31)N=C(c1ccc(OCCCO)cc1)O[C@@H]2c1ccccc1 = TRUE
• CCCC=C(CCC)[C@@H](NC(=O)C(C)(C)C)c1ccc(C(=O)OC)cc1 = TRUE
• C=CCNC(=O)[C@@H]1[C@H]2C(=O)O[C@H](c3ccccc3)[C@H](c3ccccc3)N2[C@H](c2ccc(OCCO)cc2)[C@@]12C(=O)N(C(=O)OCCOC)c1ccc(C#Cc3ccc(OC)cc3)cc12 = FALSE
• CCCC[C@@H](O)C1=C(COc2ccccc2)C[C@H]2C(=O)N(Cc3ccccc3)C(=O)[C@H]2[C@H]1CO = FALSE
• Cn1cccc1C(O)C1C=CC2C(=O)N(c3ccccc3)C(=O)C2N1Nc1ccccc1 (configuration not stated) = TRUE
• NCCCCCNC(=O)[C@@H]1C[C@@H]2C(=O)N[C@@H](CCCCN)C(=O)N2[C@@H]1c1ccc(O)cc1 = TRUE
• CCCCCN1CC=CC23O[C@@H]4C=CCCOC(=O)C4[C@H]2C(=O)N(CCCCCCO)[C@@H]3C1=O (some centres not stated) = FALSE
• [N-]=[N+]=Nc1ccccc1C[C@]1(C(=O)O)COC(c2ccc(OCCCO)cc2)=N1 = TRUE
• COC(=O)c1c(CC[C@@H](CO)NC(=O)N2CCC[C@H]2Cn2cc(C3(O)CCCCC3)nn2)oc(C(C)=O)c1C(=O)OC = FALSE
• COC(=O)[C@]1(CCS(=O)(=O)c2ccccc2)N=C(c2ccc(OCCCO)cc2)O[C@@H]1c1ccccc1N=[N+]=[N-] = TRUE
• CCN(CC)c1ccc(N2CC=CC34O[C@@H]5/C=C\CCCOC(=O)C5[C@H]3C(=O)N(C(C)CO)[C@@H]4C2=O)cc1 (some centres not stated) = TRUE
• C=CCOC(=O)[C@@]1(Cc2ccccc2)C[C@H]2CO[C@H](c3ccc(OC)cc3)N2C1=O = TRUE
• COC(=O)[C@@]1(Cc2ccc(OC)cc2)[C@H]2c3cc(C(=O)N(C)C)n(Cc4ccc(OC(F)(F)F)cc4)c3C[C@H]2CN1C(=O)c1ccccc1 = TRUE
